molecular target: Mtb gyrase (Mycobacterium tuberculosis, UniProt P9WG45); assay: Mtb gyrase supercoiling assay; type: biochemical
Sequence (P9WG47 whole entry): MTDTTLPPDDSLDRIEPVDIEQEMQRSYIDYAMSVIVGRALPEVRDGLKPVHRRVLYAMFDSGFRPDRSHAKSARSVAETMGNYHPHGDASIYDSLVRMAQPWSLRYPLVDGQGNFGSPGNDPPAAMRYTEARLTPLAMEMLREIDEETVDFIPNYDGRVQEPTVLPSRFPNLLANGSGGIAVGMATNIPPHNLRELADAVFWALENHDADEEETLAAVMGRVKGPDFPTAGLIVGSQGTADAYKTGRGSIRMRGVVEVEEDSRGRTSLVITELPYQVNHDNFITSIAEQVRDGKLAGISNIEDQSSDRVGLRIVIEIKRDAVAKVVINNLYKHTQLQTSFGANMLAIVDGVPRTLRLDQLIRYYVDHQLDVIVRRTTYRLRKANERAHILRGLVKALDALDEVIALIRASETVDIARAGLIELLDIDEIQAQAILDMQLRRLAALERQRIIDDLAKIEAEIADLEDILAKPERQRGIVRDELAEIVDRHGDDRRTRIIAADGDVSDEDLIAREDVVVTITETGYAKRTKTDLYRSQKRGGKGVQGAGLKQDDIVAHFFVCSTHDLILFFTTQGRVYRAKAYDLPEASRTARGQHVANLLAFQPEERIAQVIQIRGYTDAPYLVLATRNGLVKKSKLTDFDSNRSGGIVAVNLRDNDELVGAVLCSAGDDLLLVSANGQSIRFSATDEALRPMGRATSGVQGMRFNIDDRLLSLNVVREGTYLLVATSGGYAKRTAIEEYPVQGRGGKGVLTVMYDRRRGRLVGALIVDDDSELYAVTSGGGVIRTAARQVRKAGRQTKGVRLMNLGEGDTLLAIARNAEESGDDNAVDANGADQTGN
Sequence (P9WG45 whole entry): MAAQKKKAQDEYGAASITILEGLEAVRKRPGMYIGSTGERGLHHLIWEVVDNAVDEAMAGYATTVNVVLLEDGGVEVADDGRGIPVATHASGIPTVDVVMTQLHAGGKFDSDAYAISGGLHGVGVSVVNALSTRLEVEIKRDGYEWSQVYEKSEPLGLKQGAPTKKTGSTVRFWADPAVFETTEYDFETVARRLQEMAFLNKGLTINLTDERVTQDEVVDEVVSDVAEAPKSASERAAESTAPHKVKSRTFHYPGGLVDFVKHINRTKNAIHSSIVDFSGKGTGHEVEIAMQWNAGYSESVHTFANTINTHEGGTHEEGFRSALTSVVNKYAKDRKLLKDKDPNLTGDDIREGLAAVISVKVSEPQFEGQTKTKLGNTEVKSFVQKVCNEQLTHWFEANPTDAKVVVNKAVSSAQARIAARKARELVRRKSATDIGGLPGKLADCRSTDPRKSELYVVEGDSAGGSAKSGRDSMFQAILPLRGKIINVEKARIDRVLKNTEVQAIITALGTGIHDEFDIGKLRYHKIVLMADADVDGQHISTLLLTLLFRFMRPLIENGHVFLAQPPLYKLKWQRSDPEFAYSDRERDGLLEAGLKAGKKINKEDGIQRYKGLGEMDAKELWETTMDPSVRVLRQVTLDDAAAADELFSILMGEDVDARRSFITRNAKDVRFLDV

# compound, tgt, Activity against Mtb gyrase (in words)
measured = [
    ("O=C1C(Br)=CC(=O)c2c(O)cccc21", "Mtb gyrase (Mycobacterium tuberculosis, UniProt P9WG45)", "inactive"),
    ("CC1=CC(=O)c2ccccc2C1=O [Menadione, reference compound]", "Mtb gyrase (Mycobacterium tuberculosis, UniProt P9WG45)", "inactive"),
    ("COc1ccc(CC2=C(O)C(=O)c3ccccc3C2=O)cc1", "Mtb gyrase (Mycobacterium tuberculosis, UniProt P9WG45)", "inactive"),
]

---

test system: Mtb H37Rv; test: Broth microdilution susceptibility of Mtb H37Rv; type: cell-based, Mycobacterium tuberculosis; details: replicating Mtb H37Rv; read-out: MIC90 (µM) against H37Rv
MIC90 reference

Examples with answers:
# molecule, MIC90
measured = [
    ("COc1ccc(CC2=CC(=O)c3ccccc3C2=O)cc1", "62.5 µM"),
    ("CC(=O)N(C1=C(Cl)C(=O)c2ccccc2C1=O)c1cccc(F)c1", "31.2 µM"),
    ("CCS(=O)(=O)N1CCN(C2=C(Cl)C(=O)c3ccccc3C2=O)CC1", "31.2 µM"),
    ("O=C1C=C(Cc2ccc(F)cc2)C(=O)c2ccccc21", "31.2 µM"),
    ("O=C1C(Cl)=C(N2CCN(C(=O)c3ccc(F)cc3)CC2)C(=O)c2ccccc21", "31.2 µM"),
]

Recorded MIC90 for COC1=C(OC)C(=O)C(CCCCCCCCCCO)=C(C)C1=O [Idebenone, idebenone, reference compound] , please?
125 µM

---

biological target: Mtb ThyX (Mycobacterium tuberculosis, UniProt P9WG57); assay: Mtb ThyX tritium release assay; type: biochemical; conditions: 100 µM; actual measured data
Sequence (P9WG57 whole entry): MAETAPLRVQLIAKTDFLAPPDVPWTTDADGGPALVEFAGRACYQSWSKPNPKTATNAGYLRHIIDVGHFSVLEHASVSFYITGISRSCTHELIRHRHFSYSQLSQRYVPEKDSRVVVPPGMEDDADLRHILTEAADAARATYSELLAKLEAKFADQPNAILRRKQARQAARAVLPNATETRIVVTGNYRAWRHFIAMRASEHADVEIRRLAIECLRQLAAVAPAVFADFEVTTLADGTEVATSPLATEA
// condition not met strictly below 60% in % of ThyX inhibition at 100 µM; condition met otherwise

The following compounds have reported results that may help.
# compound, tgt, category-label
rows = [
    ("O=C1C(O)=C(Cc2ccc(Cl)cc2)C(=O)c2ccccc21 [Compound 010A]", "Mtb ThyX (Mycobacterium tuberculosis, UniProt P9WG57)", "condition met"),
    ("COc1cc(CC2=C(O)C(=O)c3ccccc3C2=O)ccc1O [Compound 010H]", "Mtb ThyX (Mycobacterium tuberculosis, UniProt P9WG57)", "condition not met"),
    ("O=C1C(O)=C(Cc2ccc(F)c(C(F)(F)F)c2)C(=O)c2ccccc21 [Compound 010E]", "Mtb ThyX (Mycobacterium tuberculosis, UniProt P9WG57)", "condition not met"),
]

Confirm if % of ThyX inhibition at 100 µM reported for the compound O=C1C(O)=C(Cc2cccs2)C(=O)c2ccccc21 [Compound 010D] is 60% or above.
condition not met

Cool, now O=C1C(O)=C(Cc2ccc(-c3ccc(Cl)cc3)cc2)C(=O)c2ccccc21 [Compound 007B]
condition not met

What would you report for CC(C)Oc1ccc(CC2=C(O)C(=O)c3ccccc3C2=O)cc1 [Compound 007D] ?
condition met

Try this compound next: CCCCC1=C(O)C(=O)c2ccccc2C1=O [Compound 010I]
condition not met

Record: O=C1C(O)=C(Cc2ccc(Oc3ccccc3)cc2)C(=O)c2ccccc21 [Compound 007G]
condition met

---

Hi! I'm sharing some pIC50 results obtained with Mtb gyrase (Mycobacterium tuberculosis, UniProt P9WG45).
# log scale: pIC50 equals minus log10 of the concentration in mol/L

See these solved cases before continuing.
# molecule, pIC50
records = [
    ("Cc1cc(O)c2c(c1)C(=O)C=C(c1c(C)cc(O)c3c1C(=O)C=CC3=O)C2=O [Neodiospyrin, reference compound]", 4.30),
    ("Cc1cc2c(c(O)c1-c1c(C)cc(O)c3c1C(=O)C=CC3=O)C(=O)C=CC2=O [Isodiospyrin, reference compound]", 4.00),
    ("Cc1cc(O)c2c(c1)C(=O)C(c1c(C)cc3c(c1O)C(=O)C=CC3=O)=CC2=O [Diospyrin, reference compound]", 4.82),
]

Dear colleague, I am looking for the recorded pIC50 of the following molecule: Cc1cc(O)c2c(c1)C(=O)C=CC2=O [7-methyljuglone, reference compound]
4.52

---

molecular target: UniProtKB P9WG57; assay: Mtb ThyX tritium release assay; format: biochemical; details: from dose response curves versus ThyX; read-out: Ki against Mtb ThyX
attribute-measured: Ki
Give me the value, and tack the unit on after it.

Recorded Ki for `CCOC(=O)C1=C(c2ccc(C)cc2)C(=O)c2ccccc2C1=O` , please?
4.5 µM

---

target: Mtb ThyX (Mycobacterium tuberculosis, UniProt P9WG57)
attribute-measured: IC50

// worked examples, IC50 included
# compound, IC50
measured = [
    ("Cc1cc(O)c2c(c1)C(=O)C=CC2=O [7-methyljuglone, reference compound]", "35 µM"),
    ("COc1ccc(CC2=C(O)C(=O)c3ccccc3C2=O)cc1", "4.5 µM"),
    ("Cc1cc(O)c2c(c1)C(=O)C=C(c1c(C)cc(O)c3c1C(=O)C=CC3=O)C2=O [Neodiospyrin, reference compound]", "20 µM"),
]

Attention now turns to another entry.
Which value of IC50 has been reported for `O=C1C(Br)=CC(=O)c2c(O)cccc21` in the records?
5 µM

---

target: Mtb ThyX (Mycobacterium tuberculosis, UniProt P9WG57); assay: Mtb ThyX tritium release assay; assay type: biochemical; details: 100 µM; actual measured data
// values below are reported % of ThyX inhibition at 100 µM
Kindly provide the numeric value in % only, without the unit symbol.

# compound, readout-units, % of ThyX inhibition at 100 µM
rows = [
    ("O=C1C(O)=C(Cc2ccc(OC(F)(F)F)cc2)C(=O)c2ccccc21 [Compound 007C]", "%", 78),
    ("O=C1C(O)=C(Cc2cc(F)cc(F)c2)C(=O)c2ccccc21 [Compound 010B]", "%", 68),
    ("O=C1C(O)=C(Cc2ccc(C(F)(F)F)cc2)C(=O)c2ccccc21 [Compound 007F]", "%", 74),
    ("COc1ccc(CC2=C(O)C(=O)c3ccccc3C2=O)cc1OC [Compound 010K]", "%", 42),
]

Need % of ThyX inhibition at 100 µM, item O=C1C(O)=C(Cc2ccc(F)c(Cl)c2)C(=O)c2ccccc21 [Compound 010F]
73

Each recorded value in this set is attributed to paper PMC4901301.
